Inhibition values by entry
- Tested on: Plasmodium falciparum
- experiment.summary: GSK_TCMDC: Inhibition of Plasmodium falciparum 3D7 in whole red blood cells, using parasite LDH activity as an index of growth. Test compounds present at 2uM
- Assay type: functional
Answer in %, number only, no unit symbol.

O=C(/C=C/c1ccc(Cl)c(Cl)c1)NCCCCCN1CCC(c2c[nH]c3ccc(O)cc23)CC1    100
COCCNCc1ccc(-c2ccc(CNC3CCN(Cc4ccccc4)CC3)cc2)cc1.O=C(O)C(F)(F)F    100
CC(C)(C)c1ccc(CNC(=O)/C=C/c2ccc(-c3nc4cc(C(C)(C)C)ccc4[nH]3)cc2)cc1    100
CN(C)CCNC(=O)c1cc2c(-c3ccc(Cl)cc3)nn(C)c2s1    98
O=C(O)C(F)(F)F.O=c1[nH]ccc2nc(N[C@@H]3CCCNC3)nc(Nc3ccc(S(=O)(=O)N4CCOCC4)cc3)c12    96
CC(C)(C)OC(=O)N1CCC(C2CCN(C(=O)OC(C)(C)C)CC2)CC1    86
C#CCNCc1ccc(-c2cccc(-c3nc4cccc(C)c4[nH]3)c2)cc1.O=C(O)C(F)(F)F    100
COc1cccc(CN2CCC3(CC2)CN(C(=O)Nc2ccc(Cl)c(Cl)c2)C3)c1    97
Cc1cccc2nc(-c3cccc(-c4ccc(NC(=O)C(C)CN5CCN(C)CC5)cc4)c3)[nH]c12 (configuration not stated)    99
c1ccc(-c2n[nH]cc2Nc2ccnc3ccccc23)nc1    100

Assay Plasmodium falciparum, sample COc1cc(C)nc2ccc(NC(=O)Nc3cccc4ccccc34)cc12 , Inhibition read: 91

Measured Inhibition (Plasmodium falciparum), entry NCCCNc1nc(Nc2ccc(C(F)(F)F)cc2F)c2c(=O)[nH]ccc2n1.O=C(O)C(F)(F)F : 95

Inhibition of O=C(CCc1c[nH]cn1)Nc1cccc(-c2ccc(-c3nc4ccccc4[nH]3)s2)c1 , assay on Plasmodium falciparum, is 92

Record CN1CCC(C(=O)Nc2ccc(-c3ccc(-c4nc5ccccc5[nH]4)cc3)cc2)CC1 has Plasmodium falciparum Inhibition equal to 100

Assay Plasmodium falciparum, sample Cl.c1ccc(-c2cc(NCCNc3cc(-c4ccccc4)nc4ccccc34)c3ccccc3n2)cc1 , Inhibition read: 99

// molecule Cc1ccc(NC(=O)c2ccc(Cl)cc2)cc1-c1ccc(C(=O)Nc2ccncc2)cc1 , assay Plasmodium falciparum, Inhibition value: 98

Inhibition of Cc1cc(NCCC(=O)NCCc2ccccc2)nc(NCCc2ccc(F)cc2)n1.O=C(O)C(F)(F)F , assay on Plasmodium falciparum, is 92

Cc1cc(N(C)C)nc(Nc2ccc(NC(=O)c3c(F)cccc3Cl)cc2)n1 tested on Plasmodium falciparum gave Inhibition: 90

Item COc1cccc(CCc2cccc(CNC(C)=O)c2)c1 ; assay system Plasmodium falciparum; Inhibition reported as 88

So the reported Inhibition for Fc1ccc(-c2csc3ncnc(Cl)c23)cc1 , on Plasmodium falciparum, turned out to be 94

Item Cc1nc(C)c(-c2ccc(Cl)cc2Cl)c(O)c1Br ; assay system Plasmodium falciparum; Inhibition reported as 87

Reading of Inhibition for CCN(CC)CCN(Cc1ccc(-c2ccc(C(F)(F)F)cc2)cc1)C(=O)Cn1nc(-c2ccc(C(F)(F)F)cc2)ccc1=O with Plasmodium falciparum: 100

Observed Inhibition, Plasmodium falciparum, Cl.N#Cc1ccc2c(c1)CCN(CCC1CCC(NC(=O)c3cc4ccccc4[nH]3)CC1)CC2 (configuration not stated) : 89

Record O=C(NCCCCN1CCC(c2c[nH]c3ccccc23)CC1)c1sc(-c2ccc(C(F)(F)F)cc2)nc1CO / Plasmodium falciparum, Inhibition recorded as 94

Record for Cc1ccc(C(=O)N2CCN(Cc3nccs3)CC2)cc1 under target or system Plasmodium falciparum: Inhibition reported as 86

Bench note, Plasmodium falciparum: entry Cl.N#Cc1ccc(-c2ccc(C(=O)Nc3ccc4c(c3)CCN(C3CCC3)CC4)nc2)cn1 , its Inhibition = 85

Origin of measurements: ChEMBL document CHEMBL1157539
